Overview of reported melting point across a group of compounds:
reported.metric: melting point

[[record]]
compound = "O=C(C(C(=O)c1cccc([C@@H](O)CO)c1F)=C1Nc2ccccc2N1)c1cccc(F)c1"
observed = "197 to 198 °C"

[[record]]
compound = "O=C(C(C(=O)c1ccc(F)c([C@@H](O)CO)c1)=C1Nc2ccccc2N1)c1cc(F)cc(F)c1"
observed = "147 to 149 °C"

[[record]]
compound = "O=C(C(C(=O)c1cccc([C@@H](O)CO)c1Cl)=C1Nc2ccccc2N1)c1cccc(Cl)c1"
observed = "134 to 136 °C"

[[record]]
compound = "O=C(C(C(=O)c1cccc([C@@H](O)CO)c1Cl)=C1Nc2ccccc2N1)c1cccc(F)c1"
observed = "125 to 127 °C"

[[record]]
compound = "O=C(C(C(=O)c1cccc([C@@H](O)CO)c1)=C1Nc2ccccc2N1)c1cccc(F)c1"
observed = "190 to 191 °C"

[[record]]
compound = "O=C(C(C(=O)c1cccc([C@@H](O)CO)c1Cl)=C1Nc2ccccc2N1)c1cc(F)cc(F)c1"
observed = "126 to 129 °C"

[[record]]
compound = "Cc1c(C(=O)C(C(=O)c2ccccc2F)=C2Nc3ccccc3N2)cccc1[C@@H](O)CO"
observed = "215 to 217 °C"

[[record]]
compound = "O=C(C(C(=O)c1cc(F)c(F)c(F)c1)=C1Nc2ccccc2N1)c1cccc(C(O)CO)c1 (stereo not drawn)"
observed = "139 to 140 °C"

[[record]]
compound = "CCCCc1c(C(=O)C(C(=O)c2cccc(F)c2)=C2Nc3ccccc3N2)cccc1[C@@H](O)CO"
observed = "132 to 133 °C"

[[record]]
compound = "O=C(C(C(=O)c1cc(F)cc(F)c1F)=C1Nc2ccccc2N1)c1cccc(C(O)CO)c1 (stereo not drawn)"
observed = "127 to 129 °C"

[[record]]
compound = "O=C(C(C(=O)c1cccc([C@@H](O)CO)c1)=C1Nc2ccccc2N1)c1cc(F)cc(F)c1"
observed = "189 to 190 °C"

[[record]]
compound = "Cc1c(C(=O)C(C(=O)c2cc(F)cc(F)c2)=C2Nc3ccccc3N2)cccc1[C@@H](O)CO"
observed = "228 to 229 °C"

